Kindly supply the reported GI50 values for the records listed here.
- Test system: HCT-116
- Assay Comment: NCI tumour cell line growth inhibition, 48 h
Calls of active or inactive are those of the source. Cut-off read from the data, not from the text of the source: active = GI50 up to about 1.1 µM and inactive = higher.

Q: I am curious: what GI50 value has been reported for COc1c2c(cc3oc(=O)ccc13)OC(C)(C)C=C2 [XANTHOXYLETIN] ?
Ans: 18.6 µM (inactive)

Q: Queued: N/N=C(/CC(O)(C(F)(F)F)C(F)(F)F)c1ccccc1
Ans: > 10 µM (inactive)

Q: Request: O=c1oc2ccccc2n1CCN1CCCCC1
Ans: > 100 µM (inactive)

Q: Same again, this time with Nn1c(SCC(=O)O)nc2ccccc2c1=O
Ans: > 100 µM (inactive)

Q: Repeat for the following compound: Cc1ccc(C(=O)N/N=C(\N=N\c2ccc([N+](=O)[O-])cc2)c2ccc(N(CCC#N)CCC#N)cc2C)cc1
Ans: 54.8 µM (inactive)

Q: Subsequent entry: O=c1cccccc1O.O=c1cccccc1O.O=c1cccccc1O.[SiH4]
Ans: 13.6 µM (inactive)

Q: Field entry: CN(C)c1ccc(/C=N/c2ccc(-c3nc4ccccc4o3)cc2)cc1
Ans: 53.7 µM (inactive)

Q: Another compound: CC1(C)C2CCC1(C)C(NC(=O)COCCOCC(N)=O)C2 (stereo not drawn)
Ans: > 100 µM (inactive)

* * *

Give GI50 for every item shown.
- Tested on: Malme-3M
- Assay Comment: NCI tumour cell line growth inhibition, 48 h
Calls of active or inactive are those of the source. Rule as the data show it: active = GI50 up to about 1.1 µM and inactive = higher.

Q: So what does the record say about GI50 for COC(=O)C(C)(NC(=O)C(CC(=O)OC(C)(C)C)NC(=O)OC(C)(C)C)c1ccccc1 (stereo not drawn) ?
Ans: 40 µM (inactive)

Q: Then COC(CN(C)C(=O)C(C)NC(=O)c1ccccc1)OC (stereo not drawn) ?
Ans: > 100 µM (inactive)

Q: Field entry: O=C1NC(c2cccc(OCc3ccccc3)c2)Nc2ccccc21 (stereo not drawn)
Ans: 0.0897 µM (active)

Q: Also, NC(=O)c1ccc2c(c1)S(=O)(=O)c1ccccc1C2=O please.
Ans: > 100 µM (inactive)

Q: Again, but for C=CC(=C)CCC(Br)C(C)(C)Br (stereo not drawn)
Ans: 41.2 µM (inactive)

Q: Can you handle CC(/C=C/C(O)=C1/C(=O)CNC1=O)=C\[C@@H](C)[C@H]1O[C@@]2(C)O[C@H](C(=O)[C@@H]3O[C@@]32C)[C@@H]1C next?
Ans: 18.1 µM (inactive)

Q: Similarly, COc1ccc(N[C@H](C[S+]([O-])c2ccc(C)cc2)C(F)(F)F)cc1 (stereo partly drawn) ?
Ans: > 100 µM (inactive)

Q: And the next one, Cc1ccc(S(=O)(=O)NC(=O)NCC(N)=O)cc1 ?
Ans: > 100 µM (inactive)

Q: Param item: O=c1oc2cc(O)ccc2c2oc3cc(O)ccc3c12
Ans: 79.6 µM (inactive)

Q: # repeat for COC1(C)CNCC(C)(C)NC(=O)C(C)(OC)CNCC(C)(C)NC1=O (stereo not drawn)
Ans: > 100 µM (inactive)

Q: Thanks! And CC1SC2=NC3=C(c4ccccc4C3=O)C(c3ccc(Br)cc3)N2C1=O (stereo not drawn) ?
Ans: 44.3 µM (inactive)

Q: Then what about the molecule Cc1ccc(OC2CC(n3cnc4c(=O)[nH]c(Br)nc43)OC2Oc2ccc(C)cc2)cc1 (stereo not drawn) ?
Ans: 22.9 µM (inactive)

Q: Also, COc1cc(/C=c2/c3ccccc3n3c2cc(-c2ccccc2)[n+]3C)cc(OC)c1OC please.
Ans: 2.19 µM (inactive)

Q: Now consider Cc1ccc(OP2(=O)Oc3ccc4ccccc4c3CN2c2ccc(Cl)cc2)cc1C (stereo not drawn) and answer again.
Ans: > 100 µM (inactive)

Q: Lookup CC1(Br)CC2OC3(Br)C=CC(C)(O)C2(CC1=O)C3(C)C (stereo not drawn)
Ans: > 100 µM (inactive)

Q: // same read-out, input: O=C(CC(=O)c1cccc2ccccc12)C(=O)NC1C2CC3CC(C2)CC1C3 (stereo not drawn)
Ans: > 100 µM (inactive)

Q: Here is the next molecule: O=[N+]([O-])c1ccc(-n2nnc(C3=NCCCN3)c2-c2ccc(Cl)cc2)cc1
Ans: > 100 µM (inactive)

Q: Also, C=CCOC(=O)C1C2OC3(C(C(=O)OC)=C2C(=O)OC)c2ccccc2CCC13 (stereo not drawn) please.
Ans: > 10 µM (inactive)
